Where these numbers come from: the domain aggregation screens of Martell et al. (2025)

- Measurement description: soluble fraction after stress (log2 fold change); higher = more stays soluble; pooled small domains, quantitative proteomics
- Measurement context: stress: 50 degC
As shown below, each of these sequences has a reported soluble fraction (log2) value.
Respond using a number only.

Known results for sequences:
{"columns": ["Residue string", "soluble fraction (log2)"],
 "data": [
  ["HMEDNYYENKINYLFGYLDEADKEISVNSILDFHLAHRTNPEFVFEPKKNTNPLIWKYLSNSNLLY", -0.0177],
  ["HMSRPLISNMLRLLNLPPTVQRKVAAGVISAGHARALLGLNDEKEIEKLANRIVAEGLSVRATEEIVAIA", -0.937],
  ["HMKKYLIIDAANEKIIFKIIDNNKTYTNDYENSRKNFDRFAVLLFNFLNKNMISFDTIDKAL", -0.0864],
  ["HMKQPNSYGSVHKLPGKRRKPWRVRKTSGWLLDEQSGTVKQQYITIGYYATKQEALIALADYNENP", -1.62],
  ["HMKLARGEFEIMAKFIKEISGISLEQNKTYLIESRLSDLAESEGVKTFSDFFFKAKFNKILKEKIIDAI", -0.946]
]}

query: Sample "HMTSFDVMLKSAGANKLAVVKLVKELTGLGLKEAKDIVDAAPSKVKEGVSKEEAEELQKQLTGAGAEVEL" — what was its soluble fraction (log2)?
result: 0.0299

query: What do we get for "HMITLKKRRQEAILEIIEKYDLSTQDELLQKLKDSGFDATQATVSRDIKELRLVKTMGANGQYKYAVT" ?
result: -0.403

query: "HMEELLVAVKADGSIWADGRPITPDGLASFIDSKPADAVLNLAVDKKAPFAAFVKVVDVAKEKKSGRFVIR" , same question.
result: 0.0577

* * *

- Measurement description: soluble fraction after stress (log2 fold change); higher = more stays soluble; pooled small domains, quantitative proteomics
- Measurement context: stress: 50 degC
Parameter threshold = 0.08. Response is Criterion met when soluble fraction (log2) meets or exceeds it, else Criterion not met.

query: Quick check: does "HMAVSSYSVKRYIRNMIQAEDPSAPFSDEALRLALLAHGIAVSRRVVTKYRMAMDIPSSSQRRKR" have soluble fraction (log2) greater than or equal to 0.08?
result: Criterion not met

query: Try this sequence too: "HMVWNVEQIKRAVDQLPDGYRVVFTLYLFEGYDHREIADILGISEGGSKSQFNRAKSKLKEILTAMS"
result: Criterion not met

query: And for "HMEAEMLYQVKVKITNLVIRSGAGAIYPIVKRYASGVLPIYEEKNGYGKIAVGQWISLSPEFVERVD" ?
result: Criterion not met

query: Next sequence: "HMTSEVLTNATIVKMVKAKLSDDIIIDEINNARVNFDVSPEGIKSLTAQNVTEPVIETMKKAVAAQESI"
result: Criterion met

query: Field entry: "HMDNWYIAFNSFLSQNKLTAKNVSELTGLSKPTIDSYKQGKRKPTDENMQIIKDKLGFNISEILYN"
result: Criterion not met

query: Now this one: "HMRKKIIAQTLEEIRKSKGYSQKQVAAFIKVKPTTYNTYESGRTEPPAEILVRLSYLYRTPVDTLVQRDR"
result: Criterion not met

query: Check "HMTPTRQATVSVAALNVREQPSLQGRRLGKLTQGTTLTVVGPPGEWLKIEYKGETGFVYASYTSLG" too.
result: Criterion not met

query: Now consider "HMGVHSVVPDIKNKHYGEAKAILAANGLSIEISDSIYDRSVAPGTVVESWPKAGAIVKGDRAVFVTLTAF" and answer again.
result: Criterion not met

query: One more sequence: "HMYPQLIGFKVIDEDKGEVGVVKEVSESMHQILLTVMKGKKEILIPLAEEFITKVNRHKKELFMVLPDG"
result: Criterion met

* * *

Reported soluble fraction (log2) values for the following sequences.
- Measurement description: soluble fraction after stress (log2 fold change); higher = more stays soluble; pooled small domains, quantitative proteomics
- Measurement context: stress: 50 degC
I only need the number, thanks.

Worked examples, 3 sequences total:
{"columns": ["Residue string", "Experimental result"],
 "data": [
  ["HMKRKAIDQSWQPDKEAIEILSKAGVNEEFIKEEIPEFILYWSEKGEESDTWNSKFIAQVRRQWAKTQH", -0.0567],
  ["HMKQVEVESVIGKSEEAANSILTKAGLKVNIGYKEDSSKPTDTVLSQDPAPGEKVDEGTTVTIVVNNYKKP", 0.0614],
  ["HMSVLDEVRKLSFHQRNAVFLFYFEGYSMKEIAQIFHVKEGTVSSWLTRARKQLRKQMEEEVLYDESLP", -0.526]
]}

Now let's try a different one.
query: So what does the record say about soluble fraction (log2) for "HMDKQEKIHKKKIIILEALKRLLQNDVYSRITVQAVADEAGFSKGGLLHYFPTKEEMYIEFMEY" ?
result: -0.0218

* * *

- Measurement description: soluble fraction after stress (log2 fold change); higher = more stays soluble; pooled small domains, quantitative proteomics
- Measurement context: stress: 50 degC
Measured endpoint: soluble fraction (log2)
Simply state the number, no unit and no words.

{"columns": ["Residue string", "soluble fraction (log2)"],
 "data": [
  ["HMSDLVATKEQVVEAYKYGLGLGLDNSTLKMLLFDIRGEDVADQDKISDGMTVSEIEIWKEGMRTIAEEYL", -0.508],
  ["HMISAEPVGEDLFKVAFPFLGGSTVFEKTIEQFIEEHPSKRIDHIYTVPNPLRLKKADALIFYIITEEK", -1.02],
  ["HMVEVPEQLRDLLERSIEDLAELSVRSRNSLQKENIQTLGDLVQRTEEEMLGIENFGKKSLTEIAAFL", -0.101],
  ["HMSVDVEGNQRIPTEQVLSELRDVGVSFGKRVSGLNADTIRNQMIINNDEIAWLGVNVRGSRVYVEITERI", -0.018]
]}

query: Given "HMLLLASTPAEQTIIQLLAEGWRDGDQLQQRSHLSAADFSTALTMLEVNGSIKPLGANHWALTH" , state its recorded soluble fraction (log2).
result: -0.919

query: Try this sequence too: "HMVFTEEEMLEKIKEYLSTNSYINRRAMETLFNLRQSTALKWLGHFTEIGVLRKEGERNYPVYFLNN"
result: -0.296

query: Next: "HMQLFKFKNAMMELAKNKNITLDTAEKAIGLEAGFTELVARGVKELALSDVIKISKYFNTTMDSVLD"
result: -0.903

query: Try this sequence too: "HMKITKIWFTADHIFGRDEEGKEYSQSLLWYPKLSAASDEERSQYTFGYDGIHWRSLDEDISFESF"
result: -3.98

query: Then "HMSPGAKIEVTGNTVNLRAGPGTNYDTRGQVKKGEQLPLLGEQGGWYRVQTSRGVAYLAGWLARVLT" ?
result: 0.0409

query: And what about the sequence "HMRTYYEILGVSKNASLHEIQKAYRELALKYHPKNNSDPTAEEKFTQINEAYTHLSDAARRRSYDDL" ?
result: 0.222

* * *

- Measurement description: soluble fraction after stress (log2 fold change); higher = more stays soluble; pooled small domains, quantitative proteomics
- Measurement context: stress: 50 degC
Note to self: values exactly at -0.04 are 1.0. So soluble fraction (log2) at or above -0.04 is 1.0, below is 0.0.

{"columns": ["Residue string", "Category"],
 "data": [
  ["HMNYGDVIEGQIMHVDRDELLVDIGSKSEGIIPAREFSTLTDEERAALSVGDHVLVFVVQAENQEGQAV", 1.0],
  ["HMYSKQRELIMEAVFKNRVHPTAEYVYKLLKKDHPELSLGTVYRNLNYWAENNMLKKINVPGGSDRFDGT", 1.0],
  ["HMDDYRIEDMMTVVEEQVIRQKETNLSWFFKRAGSLNEIITIFLAALELIKVHRVYVKQEHNFDDIILRKE", 1.0],
  ["HMIFTPNGDRVNDVFEIEMGVKLEFQIIILNQQNQTVFKSADPDFKWDGTMLNGEPAPSGTYLYYFSAKD", 1.0],
  ["HMDLKENQHILQISNKGVQMGNVLKDLIIQTLNITNGNQIKAAKLLAISRAKLRYRIEQLGINISGKNI", 0.0]
]}

query: Record "HMQISDDGFILKIINEVVAENPKSISDYISGKEAAVGFLVGQIMKKTRGKANPKLVNEMLITELAKLKN" ; criterion: soluble fraction (log2) no lower than -0.04. Met?
result: 0.0

query: Same for "HMTKKEFLDILTESLAGNVPASEIEENIRYYKDYIENGEESEEKALEQLGDPHLIARTIIDSFIA"
result: 0.0

query: Item: "HMLGDIYISIPRAKLQAEEYGHSFKRELAFLAVHGFYHLLGYDHQTKEEEEVMFGKQEEVLAEFDIKR"
result: 0.0

* * *

- Measurement description: soluble fraction after stress (log2 fold change); higher = more stays soluble; pooled small domains, quantitative proteomics
- Measurement context: stress: 50 degC
Measured endpoint: soluble fraction (log2)
Just the number.

// below: answered sequences
{"columns": ["Residue string", "soluble fraction (log2)"],
 "data": [
  ["HMAFDYETYQLTSREFSIIELVADGRSNREIAEALYLGEGTVRNYLSSILEKLELRDRTQLAVFFYQHL", -2.3],
  ["HMGMMTLGQRIAQYRKAMGISQEELGGRLGVSRQAVSKWETDAAAPDMENLLALAREFGVSVAELTETP", -0.0446],
  ["HMLDGFEVGMTVMRKPGTETGFTGWPPFADKDEFPVIERIDTSDSTLLLRFNDTSWWINASLVEPSDV", -1.33],
  ["HMHMSKKLADSISALRKKNGLSQEQLAEKIGISRQTVSNWERGIATPDVETLNLISKLFDEDLSVMING", 0.199],
  ["HMGDITALMPGKVIQIIVKEGQEIKVGDPLIVIESMKMENTISSEVNGTIKSINIQIDDNVQFDQVLFTV", -2.1],
  ["HMTQSGLTQWEFNMLRQALIEMLGEKPGSVFELARLLPLEQEKNVQALRFLLDHDDQFHLKDEYISFVKRT", -1.92]
]}

query: Reported soluble fraction (log2) for "HMQLEPLVTSVIPVNFAKASDISGTIKGKEVGLLSERGNITAENRTNVLIVKDIRKSVDEINAMVKRLD" : what is it?
result: -0.0183

query: How about this sequence: "HMILKNVPSNLVNQRLDKVATVLFQTYSRTQIKKWILEGRLLVNGEISNPKDLVNENDEIEINPI"
result: -1.6
